- System: RD cells
- testProtocol: Cytotoxicity assay (CellTiter-Glo 2.0) on RD cells
- Format: cell-based, Human
- conditionsUsed: Homo sapiens, 48 h, 2 day-treatment
pIC50: −log10 of the molar value.
reportedMetric: pIC50

1. CSc1cc(Oc2ccnc3c2CCC(=O)N3)ccc1NC(=O)Nc1ncc(C(C)(C)C)s1	5.30 to 6.00
2. CSc1cc(Oc2ccnc3c2OCC(=O)N3)ccc1NC(=O)Nc1cc(C(C)(C)C)nn1C	5.30 to 6.00
3. Cc1ccc(-n2nc(C(C)(C)C)cc2NC(=O)Nc2ccc(Oc3ccnc4c3OCC(=O)N4)cc2C(F)(F)F)cc1	5.00 to 5.30
4. CSc1cc(Oc2ccnc3c2OCC(=O)N3)ccc1NC(=O)Nc1cc(C(C)(C)C)nn1-c1ccc(C)nc1	5.30 to 6.00
5. CSc1cc(Oc2ccnc3c2CCC(=O)N3)ccc1NC(=O)Nc1cc(C(C)(C)C)no1	> 6.00
6. CC(C)(C)c1cc(NC(=O)Nc2ccc(Oc3ccnc4c3CCC(=O)N4)c3ccccc23)on1	5.30 to 6.00
7. CSc1cc(Oc2ccnc3c2OCC(=O)N3)ccc1NC(=O)Nc1cc(C(C)(C)C)nn1-c1ccc(F)cc1F	5.30 to 6.00

* * *

- Test system: RD cells
- testProtocol: Cytotoxicity assay (CellTiter-Glo 2.0) on RD cells
- Format: cell-based, Human
- conditionsUsed: Homo sapiens, 48 h, 2 day-treatment
pIC50: −log10 of the molar value.
Measured pIC50, listed per entry for reference.
reportedMetric: pIC50

1) CC(C)(C)c1cnc(NC(=O)Nc2ccc(Oc3ccnc4c3CCC(=O)N4)c3ccccc23)s1	5.00 to 5.30
2) CN(C)Cc1ccc(-n2nc(C(C)(C)C)cc2NC(=O)Nc2ccc(Oc3ccnc4c3CCC(=O)N4)cc2C(F)(F)F)cc1	5.30 to 6.00
3) CSc1cc(Oc2ccnc3c2OCC(=O)N3)ccc1NC(=O)Nc1cc(C(C)(C)C)nn1-c1cncc(F)c1	5.30 to 6.00
4) CSc1cc(Oc2ccnc3c2CCC(=O)N3)ccc1NC(=O)Nc1cc(C(C)(C)C)on1	5.30 to 6.00

* * *

IC50 reference
- Test system: RD cells
- testProtocol: Cytotoxicity assay (CellTiter-Glo 2.0) on RD cells
- Type: cell-based, Human
- conditionsUsed: Homo sapiens, 48 h, 2 day-treatment
reportedMetric: IC50

1. CSc1cc(Oc2ccnc3c2CCC(=O)N3)ccc1NC(=O)Nc1cc(C(C)(C)C)nn1-c1cncc(F)c1	1 to 5 µM
2. CC(C)(C)c1cc(NC(=O)Nc2ccc(Oc3ccnc4c3CCC(=O)N4)cc2C(F)(F)F)on1	1 to 5 µM
3. CSc1cc(Oc2ccnc3c2OCC(=O)N3)ccc1NC(=O)Nc1cc(C(C)(C)C)no1	1 to 5 µM
4. CSc1cc(Oc2ccnc3c2OCC(=O)N3)ccc1NC(=O)Nc1cc(C(C)(C)C)nn1-c1ccc(CCN2CCOCC2)cc1	1 to 5 µM
5. CC(C)(C)c1cc(NC(=O)Nc2ccc(Oc3ccnc4c3CCC(=O)N4)cc2C(F)(F)F)n(-c2cccc(CN3CCOCC3)c2)n1	5 to 10 µM
6. CSc1cc(Oc2ccnc3c2OCC(=O)N3)ccc1NC(=O)Nc1cc(C(C)(C)C)nn1-c1cccc(CN(C)C)c1	1 to 5 µM
7. CSc1cc(Oc2ccnc3c2OCC(=O)N3)ccc1NC(=O)Nc1cc(C(C)(C)C)nn1-c1cccc(F)c1	1 to 5 µM
8. CSc1cc(Oc2ccnc3c2CCC(=O)N3)ccc1NC(=O)Nc1cc(C(C)(C)C)nn1-c1ccc(C)cc1	1 to 5 µM
9. CSc1cc(Oc2ccnc3c2CCC(=O)N3)ccc1NC(=O)Nc1cc(C(C)(C)C)nn1-c1cccc(Cl)c1	1 to 5 µM
10. CN(C)Cc1cccc(-n2nc(C(C)(C)C)cc2NC(=O)Nc2ccc(Oc3ccnc4c3CCC(=O)N4)cc2C(F)(F)F)c1	1 to 5 µM
11. CSc1cc(Oc2ccnc3c2CCC(=O)N3)ccc1NC(=O)Nc1cc(C(C)(C)C)nn1-c1ccc(CN2CCOCC2)cc1	1 to 5 µM
12. CSc1cc(Oc2ccnc3c2CCC(=O)N3)ccc1NC(=O)Nc1cc(C(C)(C)C)nn1-c1cccc(F)c1	1 to 5 µM
13. Cc1ccc(-n2nc(C(C)(C)C)cc2NC(=O)Nc2ccc(Oc3ccnc4c3OCC(=O)N4)cc2C(F)(F)F)cn1	5 to 10 µM
14. CC(C)(C)c1cc(NC(=O)Nc2ccc(Oc3ccnc4c3OCC(=O)N4)cc2C(F)(F)F)n(-c2cccc(CN3CCOCC3)c2)n1	≥ 10 µM
15. CC(C)(C)c1cc(NC(=O)Nc2ccc(Oc3ccnc4c3CCC(=O)N4)cc2C(F)(F)F)n(-c2cncc(F)c2)n1	1 to 5 µM
16. CC(C)(C)c1cc(NC(=O)Nc2ccc(Oc3ccnc4c3CCC(=O)N4)cc2C(F)(F)F)n(-c2cccnc2)n1	5 to 10 µM
17. CSc1cc(Oc2ccnc3c2OCC(=O)N3)ccc1NC(=O)Nc1cc(C(C)(C)C)nn1-c1ccc(CN2CCN(C)CC2)cc1	1 to 5 µM
18. CSc1cc(Oc2ccnc3c2CCC(=O)N3)ccc1NC(=O)Nc1cncc(C(F)(F)F)c1	1 to 5 µM
